Let's look at some compounds and their measured pEC50.
Experimental Target: UniProt P60953
Method Description: wild-type Cdc42 nucleotide-binding inhibitors, SAR follow-up, biochemical, bead-based multiplex flow cytometry, oxadiazole series (AID 2037)
pEC50: −log10 of the molar value.

Report pEC50 for "COc1ccc(-c2noc(CCC(=O)N3CCN(c4ccccc4)CC3)n2)cc1" please.
< 4.52

Report pEC50 for "COc1ccc(-c2noc(CCC(=O)N3CCN(c4ccc(Cl)cc4)CC3)n2)cc1" please.
< 4.52

Report pEC50 for Cc1ccc(C)c(N2CCN(C(=O)CCc3nc(-c4cccc(C(F)(F)F)c4)no3)CC2)c1 [KUC103380N] please.
< 4.52

Report pEC50 for "Cc1cccc(-c2noc(CCC(=O)N3CCN(c4cc(C)ccc4C)CC3)n2)c1" please.
5.99

Report pEC50 for "COc1ccc(-c2noc(CCC(=O)N3CCN(c4cccc(Br)c4)CC3)n2)cc1" please.
< 4.52

Report pEC50 for COc1ccc(-c2noc(CCC(=O)N3CCN(c4ccccc4Br)CC3)n2)cc1 [KUC103370N] please.
5.64

Report pEC50 for Cc1ccc(C)c(N2CCN(C(=O)CCc3nc(-c4cccc(F)c4)no3)CC2)c1 [KUC103366N] please.
< 4.52

Report pEC50 for COc1ccc(-c2noc(CCC(=O)N3CCC(c4cc(C)ccc4C)CC3)n2)cc1 [KUC103432N] please.
5.85

Report pEC50 for "Cc1ccc(C)c(N2CCN(C(=O)CCc3nc(-c4ccccc4C(F)(F)F)no3)CC2)c1" please.
5.30

Report pEC50 for "COc1ccc(-c2coc(CCC(=O)N3CCN(c4cc(C)ccc4C)CC3)n2)cc1" please.
5.64

Report pEC50 for "COc1ccc(-c2noc(CCC(=O)N3CCN(c4ccc(Br)cc4)CC3)n2)cc1" please.
< 4.52

Report pEC50 for "COc1ccc(-c2noc(CCC(=O)N3CCN(c4cccc(F)c4)CC3)n2)cc1" please.
< 4.52

Report pEC50 for "Cc1ccc(C)c(N2CCN(C(=O)CCc3nc(-c4ccc(Cl)cc4)no3)CC2)c1" please.
5.76

Report pEC50 for Cc1ccc(C)c(N2CCN(C(=O)CCc3nc(-c4ccccc4F)no3)CC2)c1 [KUC103401N] please.
< 4.52

Report pEC50 for "COc1ccc(-c2cc(CCC(=O)N3CCN(c4cc(C)ccc4C)CC3)on2)cc1" please.
< 4.52

Report pEC50 for "COc1ccc(-c2ccc(CCC(=O)N3CCN(c4cc(C)ccc4C)CC3)[nH]2)cc1" please.
< 4.52

Report pEC50 for "COc1ccc(-c2cc(CCC(=O)N3CCN(c4cc(C)ccc4C)CC3)[nH]n2)cc1" please.
< 4.52

Report pEC50 for COc1ccc(-c2noc(CCC(=O)N3CCN(c4ccc(F)cc4)CC3)n2)cc1 [KUC103398N] please.
< 4.52

Report pEC50 for "Cc1ccc(-c2noc(CCC(=O)N3CCN(c4cc(C)ccc4C)CC3)n2)cc1" please.
5.36

* * *

Experimental Target: Cell division control protein 42 homolog (Homo sapiens)
Sequence (P60953 whole entry): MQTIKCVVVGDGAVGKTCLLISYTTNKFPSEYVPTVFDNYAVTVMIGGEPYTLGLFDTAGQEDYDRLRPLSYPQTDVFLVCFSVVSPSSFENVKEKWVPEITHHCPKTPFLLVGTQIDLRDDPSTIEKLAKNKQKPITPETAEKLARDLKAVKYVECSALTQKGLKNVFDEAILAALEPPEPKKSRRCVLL
Method Description: wild-type Cdc42 nucleotide-binding inhibitors, SAR follow-up, biochemical, bead-based multiplex flow cytometry, oxadiazole series (AID 2037)
Measurement Kind: EC50

Molecule	Experimental Target	EC50
COc1ccc(-c2ccc(CCC(=O)N3CCN(c4cc(C)ccc4C)CC3)o2)cc1 [KUC103447N]	Cell division control protein 42 homolog (Homo sapiens)	> 30 µM

Report EC50 for "COc1ccc(-c2ccc(CCC(=O)N3CCN(c4cc(C)ccc4C)CC3)s2)cc1" please.
> 30 µM

Report EC50 for "Cc1ccc(C)c(N2CCN(C(=O)CCc3nc(-c4ccccc4C)no3)CC2)c1" please.
> 30 µM
